target: CDK2/CycE (Homo sapiens, UniProt P24941)
Construct: GST; purchased ProQinase GmbH (Freiburg, Germany); host or cells: insect cells (Sf9)
assay-remarks: CDK2/CycE kinase assay (Method 2a, TR-FRET)
Format: biochemical
experimental-parameters: 10 μM ATP
pIC50: −log10 of the molar value.
value-type: pIC50

INSERT INTO results (compound, readout_value) VALUES
  ('CS(=N)(=O)Cc1cccc(Nc2ncc(F)c(-c3ccc(F)c4ccoc34)n2)c1 (single isomer, unassigned) [Example 6]', 7.24),
  ('CS(=N)(=O)Cc1cc(F)cc(Nc2ncc(F)c(-c3ccc(F)c4ccoc34)n2)c1 (single isomer, unassigned) [Example 11]', 7.14),
  ('CS(=O)(Cc1cccc(Nc2ncc(F)c(-c3ccc(F)c4ccoc34)n2)c1)=NC#N (single isomer, unassigned) [Example 3]', 7.35),
  ('CS(=N)(=O)Cc1cc(F)cc(Nc2ncc(F)c(-c3ccc(F)c4ccoc34)n2)c1 (racemic) [Example 10]', 7.30);

====

target: CDK9/CycT1 (Homo sapiens, UniProt P50750)
Construct: Recombinant full-length His-tagged human CDK9 and CycT1; His; purchased Invitrogen PV4131; host or cells: insect cells
Sequence (P50750 whole entry): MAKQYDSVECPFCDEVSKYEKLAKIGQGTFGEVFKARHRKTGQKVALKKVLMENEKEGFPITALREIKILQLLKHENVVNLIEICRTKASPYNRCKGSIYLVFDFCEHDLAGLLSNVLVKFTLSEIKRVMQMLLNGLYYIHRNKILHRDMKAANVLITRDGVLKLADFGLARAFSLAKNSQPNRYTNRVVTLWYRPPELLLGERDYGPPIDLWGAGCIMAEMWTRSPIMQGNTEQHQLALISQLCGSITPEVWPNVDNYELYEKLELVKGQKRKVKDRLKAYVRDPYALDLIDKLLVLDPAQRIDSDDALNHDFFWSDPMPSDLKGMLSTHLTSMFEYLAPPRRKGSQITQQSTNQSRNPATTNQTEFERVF
Sequence (O60563 whole entry partner): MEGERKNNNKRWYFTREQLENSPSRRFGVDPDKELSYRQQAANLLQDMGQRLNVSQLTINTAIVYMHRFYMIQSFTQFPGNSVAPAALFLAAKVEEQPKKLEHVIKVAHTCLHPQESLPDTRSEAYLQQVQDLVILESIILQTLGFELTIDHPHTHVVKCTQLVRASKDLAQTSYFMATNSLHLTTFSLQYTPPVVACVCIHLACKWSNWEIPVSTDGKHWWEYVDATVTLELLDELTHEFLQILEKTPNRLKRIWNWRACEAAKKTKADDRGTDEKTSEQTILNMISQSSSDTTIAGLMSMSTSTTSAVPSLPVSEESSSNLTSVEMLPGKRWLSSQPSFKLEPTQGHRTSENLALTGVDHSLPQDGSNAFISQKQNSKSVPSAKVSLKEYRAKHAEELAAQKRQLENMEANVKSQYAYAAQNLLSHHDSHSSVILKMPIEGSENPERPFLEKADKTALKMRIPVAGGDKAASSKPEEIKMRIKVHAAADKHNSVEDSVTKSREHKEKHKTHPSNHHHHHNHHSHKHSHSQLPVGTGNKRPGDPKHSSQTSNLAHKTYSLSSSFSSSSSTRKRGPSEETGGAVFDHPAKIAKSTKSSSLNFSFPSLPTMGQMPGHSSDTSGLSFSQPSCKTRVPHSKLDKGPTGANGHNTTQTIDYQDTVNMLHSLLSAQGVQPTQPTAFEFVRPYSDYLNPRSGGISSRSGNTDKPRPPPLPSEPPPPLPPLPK
assay-remarks: CDK9/CycT1 kinase assay (Method 1a, TR-FRET)
Assay type: biochemical
experimental-parameters: 10 μM ATP
pIC50: −log10 of the molar value.
value-type: pIC50

// below: answered compounds
INSERT INTO results (compound, readout_value) VALUES
  ('CS(=O)(Cc1cccc(Nc2ncc(F)c(-c3ccc(F)c4ccoc34)n2)c1)=NC#N (single isomer, unassigned) [Example 2]', 8.85),
  ('CS(=O)(Cc1cccc(Nc2ncc(F)c(-c3ccc(F)c4ccoc34)n2)c1)=NC#N (racemic) [Example 1]', 8.64),
  ('CS(=N)(=O)Cc1cc(F)cc(Nc2ncc(F)c(-c3ccc(F)c4ccoc34)n2)c1 (single isomer, unassigned) [Example 12]', 8.51),
  ('Cc1cc(CS(C)(=O)=NC#N)cc(Nc2ncc(F)c(-c3ccc(F)c4ccoc34)n2)c1 (single isomer, unassigned) [Example 15]', 8.62),
  ('Cc1cc(CS(C)(=N)=O)cc(Nc2ncc(F)c(-c3ccc(F)c4ccoc34)n2)c1 (racemic)', 8.31);

P: CS(=O)(Cc1cc(F)cc(Nc2ncc(F)c(-c3ccc(F)c4ccoc34)n2)c1)=NC#N (racemic) [Example 7]
Q: CS(=O)(Cc1cc(F)cc(Nc2ncc(F)c(-c3ccc(F)c4ccoc34)n2)c1)=NC#N (single isomer, unassigned) [Example 8]
Record comparison, field pIC50: mark the lower of P and Q . When you have decided, please share the label of that item.
P

====

target: CDK9/CycT1 (Homo sapiens)
Construct: Recombinant full-length His-tagged human CDK9 and CycT1; His; purchased Invitrogen PV4131; host or cells: insect cells
assay-remarks: CDK9/CycT1 high ATP kinase assay (Method 1b, TR-FRET)
Format: biochemical
experimental-parameters: Methods 1b. and 2b., 2 mM ATP
value-type: Selectivity high ATP CDK9 over high ATP CDK2: IC50 (high ATP CDK2)/IC50 (high ATP CDK9)

INSERT INTO assay_data (compound, readout_value) VALUES
  ('Cc1cc(CS(C)(=N)=O)cc(Nc2ncc(F)c(-c3ccc(F)c4ccoc34)n2)c1 (racemic)', 77),
  ('Cc1cc(CS(C)(=O)=NC#N)cc(Nc2ncc(F)c(-c3ccc(F)c4ccoc34)n2)c1 (racemic) [Example 13]', 1364),
  ('CS(=O)(Cc1cccc(Nc2ncc(F)c(-c3ccc(F)c4ccoc34)n2)c1)=NC#N (racemic) [Example 1]', 622),
  ('Cc1cc(CS(C)(=O)=NC#N)cc(Nc2ncc(F)c(-c3ccc(F)c4ccoc34)n2)c1 (single isomer, unassigned) [Example 14]', 385),
  ('CS(=N)(=O)Cc1cccc(Nc2ncc(F)c(-c3ccc(F)c4ccoc34)n2)c1 (single isomer, unassigned) [Example 6]', 313);

1: CS(=O)(Cc1cccc(Nc2ncc(F)c(-c3ccc(F)c4ccoc34)n2)c1)=NC#N (single isomer, unassigned) [Example 2]
2: CS(=O)(Cc1cccc(Nc2ncc(F)c(-c3ccc(F)c4ccoc34)n2)c1)=NC#N (single isomer, unassigned) [Example 3]
Record comparison, field Selectivity high ATP CDK9 over high ATP CDK2: IC50 (high ATP CDK2)/IC50 (high ATP CDK9): mark the lower of 1 and 2 . When you have decided, please share the label of that item.
1
(1: 321, 2: 475)

====

Tested on: HeLa-MaTu-ADR cells
assay-remarks: Proliferation assay HeLa-MaTu-ADR (Method 3)
Type: cell-based, human
experimental-parameters: 4 days, crystal violet, read-out: Inhibition of HeLa-MaTu-ADR cell proliferation IC50
value-type: IC50 (nM)

INSERT INTO assay_data (compound, value_type, readout_value) VALUES
  ('Cc1cc(CS(C)(=O)=NC#N)cc(Nc2ncc(F)c(-c3ccc(F)c4ccoc34)n2)c1 (single isomer, unassigned) [Example 15]', 'IC50', 110);

P: CS(=O)(Cc1cccc(Nc2ncc(F)c(-c3ccc(F)c4ccoc34)n2)c1)=NC#N (single isomer, unassigned) [Example 2]
Q: CS(=N)(=O)Cc1cc(F)cc(Nc2ncc(F)c(-c3ccc(F)c4ccoc34)n2)c1 (single isomer, unassigned) [Example 11]
Between the entries labelled P and Q , which has a larger IC50 value on record? When you have decided, please share the label of that item.
Q
(Q: 200 nM, P: 87 nM)

====

assay-remarks: Caco-2 permeation assay (Method 4)
Type: in vitro ADME
experimental-parameters: human, Caco-2, pH 7.2; 2 μM test compound; read-out: Efflux ratio (Papp B-A/Papp A-B)
value-type: efflux ratio at 2 h, 2 μM

INSERT INTO measurements (molecule, readout_value) VALUES
  ('CS(=N)(=O)Cc1cccc(Nc2ncc(F)c(-c3ccc(F)c4ccoc34)n2)c1 (single isomer, unassigned) [Example 6]', 0.51),
  ('CS(=N)(=O)Cc1cccc(Nc2ncc(F)c(-c3ccc(F)c4ccoc34)n2)c1 (racemic) [Example 4]', 0.57);

====

target: CDK9/CycT1 (Homo sapiens)
Construct: Recombinant full-length His-tagged human CDK9 and CycT1; His; purchased Invitrogen PV4131; host or cells: insect cells
assay-remarks: CDK9/CycT1 high ATP kinase assay (Method 1b, TR-FRET)
Type: biochemical
experimental-parameters: Methods 1b. and 2b., 2 mM ATP
value-type: Selectivity high ATP CDK9 over high ATP CDK2: IC50 (high ATP CDK2)/IC50 (high ATP CDK9)

INSERT INTO measurements (compound, readout_value) VALUES
  ('CS(=N)(=O)Cc1cc(F)cc(Nc2ncc(F)c(-c3ccc(F)c4ccoc34)n2)c1 (single isomer, unassigned) [Example 11]', 247);

a: CS(=N)(=O)Cc1cccc(Nc2ncc(F)c(-c3ccc(F)c4ccoc34)n2)c1 (racemic) [Example 4]
b: CS(=O)(Cc1cc(F)cc(Nc2ncc(F)c(-c3ccc(F)c4ccoc34)n2)c1)=NC#N (single isomer, unassigned) [Example 9]
c: CS(=O)(Cc1cc(F)cc(Nc2ncc(F)c(-c3ccc(F)c4ccoc34)n2)c1)=NC#N (racemic) [Example 7]
d: CS(=N)(=O)Cc1cccc(Nc2ncc(F)c(-c3ccc(F)c4ccoc34)n2)c1 (single isomer, unassigned) [Example 5]
Ranking field: Selectivity high ATP CDK9 over high ATP CDK2: IC50 (high ATP CDK2)/IC50 (high ATP CDK9); order: falling. Your task in answering is to list the labels in the requested order.
b, c, d, a

I: CS(=N)(=O)Cc1cc(Nc2ncc(F)c(-c3ccc(F)c4ccoc34)n2)cc(S(F)(F)(F)(F)F)c1 (racemic)
II: CS(=N)(=O)Cc1cc(F)cc(Nc2ncc(F)c(-c3ccc(F)c4ccoc34)n2)c1 (single isomer, unassigned) [Example 12]
Record comparison, field Selectivity high ATP CDK9 over high ATP CDK2: IC50 (high ATP CDK2)/IC50 (high ATP CDK9): mark the lower of I and II . When you have decided, please share the label of that item.
I

====

target: CDK9/CycT1 (Homo sapiens, UniProt P50750)
Construct: Recombinant full-length His-tagged human CDK9 and CycT1; His; purchased Invitrogen PV4131; host or cells: insect cells
assay-remarks: CDK9/CycT1 high ATP kinase assay (Method 1b, TR-FRET)
Format: biochemical
experimental-parameters: 2 mM ATP
pIC50: −log10 of the molar value.
value-type: pIC50

// below: answered compounds
INSERT INTO measurements (compound, value_type, readout_value) VALUES
  ('CS(=O)(Cc1cccc(Nc2ncc(F)c(-c3ccc(F)c4ccoc34)n2)c1)=NC#N (racemic) [Example 1]', 'pIC50', 9.05),
  ('CS(=N)(=O)Cc1cc(F)cc(Nc2ncc(F)c(-c3ccc(F)c4ccoc34)n2)c1 (single isomer, unassigned) [Example 12]', 'pIC50', 9.00),
  ('CS(=O)(Cc1cc(F)cc(Nc2ncc(F)c(-c3ccc(F)c4ccoc34)n2)c1)=NC#N (single isomer, unassigned) [Example 8]', 'pIC50', 9.00),
  ('CS(=N)(=O)Cc1cc(F)cc(Nc2ncc(F)c(-c3ccc(F)c4ccoc34)n2)c1 (racemic) [Example 10]', 'pIC50', 8.49),
  ('CS(=N)(=O)Cc1cc(F)cc(Nc2ncc(F)c(-c3ccc(F)c4ccoc34)n2)c1 (single isomer, unassigned) [Example 11]', 'pIC50', 8.43),
  ('CS(=N)(=O)Cc1cccc(Nc2ncc(F)c(-c3ccc(F)c4ccoc34)n2)c1 (single isomer, unassigned) [Example 5]', 'pIC50', 8.25);

I: CS(=O)(Cc1cc(Nc2ncc(F)c(-c3ccc(F)c4ccoc34)n2)cc(S(F)(F)(F)(F)F)c1)=NC#N (racemic) [Example 17]
II: CS(=N)(=O)Cc1cccc(Nc2ncc(F)c(-c3ccc(F)c4ccoc34)n2)c1 (racemic) [Example 4]
III: CS(=N)(=O)Cc1cccc(Nc2ncc(F)c(-c3ccc(F)c4ccoc34)n2)c1 (single isomer, unassigned) [Example 6]
IV: CS(=O)(Cc1cccc(Nc2ncc(F)c(-c3ccc(F)c4ccoc34)n2)c1)=NC#N (single isomer, unassigned) [Example 3]
Task for the reader: rank each entry by its pIC50, from the minimum upward. Your task in answering is to list the labels in the requested order.
II, I, III, IV
(II: 7.66, I: 8.13, III: 8.49, IV: 9.00)

A: Cc1cc(CS(C)(=O)=NC#N)cc(Nc2ncc(F)c(-c3ccc(F)c4ccoc34)n2)c1 (single isomer, unassigned) [Example 14]
B: CS(=N)(=O)Cc1cc(Nc2ncc(F)c(-c3ccc(F)c4ccoc34)n2)cc(S(F)(F)(F)(F)F)c1 (racemic) [Example 18]
Record comparison, field pIC50: mark the lower of A and B . When you have decided, please share the label of that item.
B
(B: 8.36, A: 8.66)

I: CS(=O)(Cc1cc(F)cc(Nc2ncc(F)c(-c3ccc(F)c4ccoc34)n2)c1)=NC#N (single isomer, unassigned) [Example 9]
II: Cc1cc(CS(C)(=O)=NC#N)cc(Nc2ncc(F)c(-c3ccc(F)c4ccoc34)n2)c1 (racemic) [Example 13]
Between the entries labelled I and II , which has a larger pIC50 value on record? When you have decided, please share the label of that item.
II
(II: 9.06, I: 8.47)
